# Test system: UACC-257 melanoma
# Experimental details: NCI tumour cell line growth inhibition, 48 h
Experimental readout: GI50

Observe how each entry below is paired with its result.
CSc1c(C2=C(c3cn(C)c4ccccc34)C(=O)NC2=O)c2ccccc2n1C
1.41 µM
CC1=CC(C)=NN=C(N)N1S(=O)(=O)c1cc(C)c(Cl)cc1SCc1ccccc1
37.6 µM
Oc1ccc(O)c(-c2cn3c(n2)SCC3)c1
25.5 µM

Prompt: Item `O=S(=O)([O-])c1ccc(N=Cc2ccccc2[O-])cc1.O=S(=O)([O-])c1ccc(N=Cc2ccccc2[O-])cc1.[Co+2]` has what recorded GI50?
Response: > 100 µM

Prompt: Query NC(=NCc1ccccc1)C(N=Nc1ccccc1)C(=O)NCc1ccccc1 (stereo unspecified) next
Response: 26.8 µM

Prompt: Entry to check: COc1cc(C2CC(c3cccc(Nc4ccnc5cc(Cl)ccc45)c3)=NN2c2ccc(Cl)cc2)cc(OC)c1OC (stereo unspecified)
Response: 3.45 µM

====

# Test system: UO-31 renal
# Experimental details: NCI tumour cell line growth inhibition, 48 h
Experimental readout: TGI (µM)
The figure you give is taken to be in µM; do not add the unit.

Consider the reported TGI for these compounds:
O=C1/C=C/[C@@H](O)[C@@H]2C[C@@H](O)C[C@H]2/C=C/CCC[C@H](CCc2cccc3ccccc23)O1
12.3
CCOC(=O)/C=C(\C(=O)OCC)n1ccc(=O)n(Cc2cnnn2CCCCOC(C)=O)c1=O
36.5
COc1cc(/C=C(\NC(=O)c2ccccc2)c2nc3ccc4c(c3[nH]2)C(=O)c2ccccc2C4=O)cc(OC)c1OC
13.5

In the following, a different compound is considered.
Prompt: Any idea what TGI came out for `CC(=O)O[C@H]([C@H](OC(C)=O)[C@H](C)OC(C)=O)[C@@H](/C=C/[C@@H]1CC=CC(=O)O1)OC(C)=O` on UO-31 renal?
Response: 39.9

====

# Test system: CAKI-1 renal
# Experimental details: NCI tumour cell line growth inhibition, 48 h
Items are presented alongside their recorded TGI.

Study these solved cases before continuing.
CC1CN=C(NS(=O)(=O)c2cc(C(=O)Nc3ccc(Cl)cc3)c(Cl)cc2S)NN1 (stereo not given)
> 100 µM
COc1cc(Oc2c(C)c(Cl)c(OC)c(Cl)c2OC)c2c(c1Cl)COC2=O
> 100 µM
NC(N)=NCC1CCCCCCN1 (stereo not given)
> 100 µM
CCOC(=O)c1cc(-n2nnc3ccccc32)cn1C
> 10 µM
Cc1ccc2oc(=O)cc(/C(=C3/C=CC=N3)c3ccc[nH]3)c2c1
10.6 µM
CC(=O)Oc1cc(S(=O)(=O)Nc2n[nH]c(Nc3ccc(C)cc3)n2)c(S)cc1Cl
> 100 µM
CN(C)c1ccc(/C=C/c2ccc(S(N)(=O)=O)cc2)cc1
> 100 µM
CCCc1cn2c(/C=N/N=C(N)N)c(-c3cccc([N+](=O)[O-])c3)nc2s1
3.83 µM
COc1cc2c(c(OC)c1OC)-c1ccc(SC)c(=O)cc1C(CC(=O)Oc1cccc([N+](=O)[O-])c1)C2 (stereo not given)
> 100 µM

Prompt: Name the recorded TGI for `COc1ccc(C=Nc2c(C(=O)Nc3cccc(Cl)c3C)sc3nc(C)c(C(=O)/C=C/c4ccc(OC)cc4)cc23)cc1` .
Response: > 50 µM

====

# Tested on: SK-MEL-2 melanoma
# Experimental details: NCI tumour cell line growth inhibition, 48 h
Experimental readout: TGI (µM)
Could you give me the number in µM? Just the number is fine.

Prompt: # lookup: TGI of COC1C(O)CC(OC2CC(OC3CC(O[C@@H]4C(=O)c5c(cc6cc(OC7CC(OC8CC(O)C(O)C(C)O8)C(O)C(C)O7)c(C)c(O)c6c5O)CC4[C@H](OC)C(=O)O)OC(C)C3O)OC(C)C2O)OC1C (some centres undefined)
Response: 10.6

Prompt: Item: CC(=O)OC1CCC2(C)C(CCC3C2CC(=O)C2(C)C3CC(N3CC3)C2C(C)=O)C1 (centres undefined)
Response: 36.1

====

Each entry below carries its reported TGI.
# System: NCI-H23 lung
# Experimental details: NCI tumour cell line growth inhibition, 48 h

Consider the following illustrative entries.
CCCCCOCC(O)CO (stereo unspecified)
> 100 µM
NCCSc1cc(O)c2c(c1N)C(=O)c1ccccc1C2=O
> 100 µM

Prompt: Item N#CC12CCC1C1CCCCC12N1CCSCC1 (stereo unspecified) has what recorded TGI?
Response: > 10 µM

Prompt: Consider next the compound `Cc1nc(SCC(=O)Nc2ccc(Cl)cc2)c2sc(=S)n(-c3ccccc3)c2n1` in the same way.
Response: > 10 µM

Prompt: Same for `Cc1c(-c2ccc(C3CCCCC3)cc2)nc2ccc(F)cc2c1C(=O)O`
Response: > 100 µM

Prompt: Param item: C=CC(O)(CBr)CCC(Br)C(=C)C (stereo unspecified)
Response: > 10 µM

Prompt: Quick one: `Oc1ccc(O)c(-c2cn3c(n2)SCC3)c1`
Response: 73.4 µM

Prompt: For `N#Cc1ccc(Cc2ccccn2)cc1Cl` then?
Response: > 100 µM

Prompt: Also need `C=CCN1/C(=C(\C#N)c2nc3ccccc3[nH]2)Sc2c1nc[nH]c2=O` , thanks.
Response: > 100 µM

Prompt: Please do the same for CC(=O)OCC1OC(n2ccc(=O)[nH]c2=O)C(OC(C)=O)C(OC(C)=O)C1OC(C)=O (stereo unspecified) as well.
Response: > 100 µM

Prompt: Same read-out for `CC(=O)Oc1cc(S(=O)(=O)Nc2n[nH]c(Nc3ccc(C)cc3)n2)c(S)cc1Cl` ?
Response: > 100 µM

Prompt: Please answer likewise for `COc1ccc(/C=C2\CN(C(=O)C(Cl)Cl)C/C(=C\c3ccc(OC)cc3)C2=O)cc1`
Response: 4 µM

Prompt: // query: COc1cc(C2c3cc4c(cc3[C@@H](Nc3cccc(CO)c3)C3COC(=O)[C@H]23)OCO4)cc(OC)c1O (stereo partly specified)
Response: 2.77 µM

Prompt: Another compound to check: O=C1CSC(c2c[nH]c3ccccc23)N1c1ccc(Cl)cc1 (stereo unspecified)
Response: > 100 µM

Prompt: Proceed to O=C(CC1(O)C(=O)N(Cc2ccccc2)c2ccc(Cl)cc21)c1ccc(C(=O)NCC2CCC3(CC2)OOC2(CCCCC2)OO3)cc1 (stereo unspecified)
Response: 0.477 µM

Prompt: COc1cc(C2C3=C(COC3=O)Oc3cc4c(cc32)OCO4)ccc1O (stereo unspecified) ?
Response: > 100 µM

Prompt: Please give the result for `COc1cc(OC)c(C(=O)c2cccs2)cc1N` too.
Response: > 100 µM

Prompt: // query: `N.N.N.N.N.NC(=O)[O-].[Co+3].[I-]`
Response: > 100 µM

Prompt: Repeat with CO[C@H]1C=CO[C@@]2(C)Oc3c(C)c(O)c4c(O)c(c(CN5CCN(C)CC5)c(O)c4c3C2=O)NC(=O)/C(C)=C\C=C[C@H](C)[C@H](O)C(C)[C@@H](O)C(C)[C@H](OC(C)=O)[C@@H]1C (stereo partly specified)
Response: > 77.6 µM

Prompt: One more compound: C=C1CC2(CC(c3ccccc3Cl)OC(c3ccccc3Cl)C2)OC1=O (stereo unspecified)
Response: 9.03 µM

Prompt: Same question for `CCCCCCCCCCCCCCCC1=NCCN1` please.
Response: 4.78 µM

====

# Test system: NCI-H226 lung
# Experimental details: NCI tumour cell line growth inhibition, 48 h
TGI values for the molecules below.

Would you please look over these solved cases?
COc1ccc(C#Cc2ccc(=O)oc2-c2cc(OC)c(OC)c(OC)c2)cc1O
> 100 µM
N#Cc1c(NCc2ccccc2)nc(NCc2ccccc2)c(C#N)c1-c1ccc(O)cc1
67.1 µM
COc1ccc(/C=C/C(=O)/C=C/c2ccc(OC)cc2OC)c(OC)c1
37.6 µM

Prompt: Given the molecule `O=C(O)C[C@@H](Cl)[C@H](NC(=O)OCc1ccccc1)C(=O)O` , what is its reported TGI?
Response: > 100 µM

Prompt: Consider next the molecule `O=P1(c2ccccc2)c2ccccc2-c2ccccc21` in the same way.
Response: > 100 µM

====

Measured TGI by item
# Test system: MALME-3M melanoma
# Experimental details: NCI tumour cell line growth inhibition, 48 h

Worked set:
CCCCC(CCCCCC(CCCC)NCc1ccc2c(c1)OCO2)NCc1ccc2c(c1)OCO2 (stereo not drawn)
2.56 µM
Cn1c(=O)c(Oc2ccc(F)cc2F)cc2cnc(NC(C)(C)CO)nc21
> 25 µM
COc1cc2c(c(OC)c1OC)-c1ccc(SC)c(=O)cc1C(CC(=O)Oc1cccc([N+](=O)[O-])c1)C2 (stereo not drawn)
> 100 µM
O=c1c2ccc(S(=O)(=O)c3ccc4c(=O)n5c6ccccc6nc5c5cccc3c45)c3cccc(c32)c2nc3ccccc3n12
> 100 µM
COc1cc2c3cc1Oc1c(O)c(OC)cc4c1C(Cc1ccc(O)c(c1)Oc1ccc(cc1)CC3N(C)CC2)N(C)CC4 (stereo not drawn)
32.8 µM
CSC1(C)C(=O)Nc2c(OCc3ccccc3)cc([N+](=O)[O-])cc21 (stereo not drawn)
> 100 µM

Prompt: Recorded TGI of CSC1NC(c2ccccc2)=C(C#N)C(=O)N1C1OCC(OC(C)=O)C(OC(C)=O)C1OC(C)=O (stereo not drawn) , please.
Response: > 100 µM

Prompt: Also check COC(=O)N1CC(=O)C(C(=O)NC23CC4CC(CC(C4)C2)C3)C1 (stereo not drawn)
Response: > 100 µM
